- Tested on: MS2 coat protein
- Assay summary: apparent KD of MS2 coat protein; designed switch direction (-1 OFF switch, 1 ON switch): -1; higher = weaker reporter binding
- Condition set: input ligand: none
Property label: apparent KD of MS2 coat protein (µM)
# unit: µM | format: bare number

Example results:
Data request: Please list apparent KD of MS2 coat protein recorded for the sequence CGAUGCUCGUGUCCACAUGAGGAUCACCCAUGUCGAGUUAGCGAGGAUAUCGGUGACACAUAGUACGAGAAGGCGCGAACCUGA [Ex NG3 #26] (Eterna round: R96, puzzle: Exclusion NG 3)
Data returned: 0.0322

Data request: Find the measured apparent KD of MS2 coat protein of UUUUGAAAGUGAGGAUAUGACAUGAGGAUCACCCAUGUAAAGGGAGUUGACUAUAUAGCAAGAUAUCAGAAGGCACAAAUGUUU [JR_ExcNG2_Sub003] (Eterna round: R96, puzzle: Exclusion NG 2) and report it.
Data returned: 0.645

Data request: Give apparent KD of MS2 coat protein for GGCAUGUAAGGAUAUGCCACUGAGUGCUUUGCGCUCAGGAAGCAGAAGGUACAUGAGGAUCACCCAUGUGAUAA [jl-ex4-4.52 ViennaUCT mod] (Eterna round: R97, puzzle: Exclusion 4)
Data returned: 0.714

More entries:
Data request: Please list apparent KD of MS2 coat protein recorded for the sequence AUCGUGUGAGGAUAUCGAUGUUGGACGUCUAGGUCUGUGCGCGAGAAGGCACAUGAGGAUCACCCAUGUAAUGG [jl-ex4-4.26 ViennaUCT mod] (Eterna round: R97, puzzle: Exclusion 4)
Data returned: 0.347

Data request: Provide measured apparent KD of MS2 coat protein value, entry: UUUGUUUAUGUAGGAUAUGCCUGGCGUGCCUUUGCAGAAGGACAUGAGGAUCACCCAUGUAACAUGAGGCUCACCCAUGUCGCG [salish99_ExNG1_r04_112] (Eterna round: R96, puzzle: Exclusion NG 1)
Data returned: 0.277

Data request: Look up and report measured apparent KD of MS2 coat protein for this entry: AGCUGUGGCCGAGGAUAUCCAGCCUUAAAUACCGACGUAUAGUCGGACAUGAGGAUCACCCAUGUGGAGAAGGCGGUCUCAGCA [Eli eng2 - 045] (Eterna round: R96, puzzle: Exclusion NG 2)
Data returned: 0.0436

Data request: Supply apparent KD of MS2 coat protein value. Item: UCCUGACAUGAGGAUCACCCAUGUGAGGAUAUGUGGAUCGAGUCAAAUCUCGUUCCGUGCAGAAGGCACAGGGC [EX1 A.21] (Eterna round: R97, puzzle: Exclusion 1)
Data returned: 0.019

Data request: State, in one line, measured apparent KD of MS2 coat protein of CCGGUUGGCGCAGGAUAUACAUGAGGAUCACCCAUGUUCAUGAGGAUCACUCAUGAGUUUUUGUUGUAGAAGGGUGGCCCGGCC (Eterna round: R96, puzzle: Exclusion NG 2)
Data returned: 0.933

Data request: State its apparent KD of MS2 coat protein for this sequence: AGCGGAGAUGUCAGGAUAUCUCGCUCGGUGGGUUGAGAGAAGGGACAUGAGGAUCACCCAUGUCUGCAAUUGUC [Eternabot (Original) Solution 46] (Eterna round: R97, puzzle: Brourd's mod of Exclusion 4)
Data returned: 0.0179

Data request: Report apparent KD of MS2 coat protein for GACAAGGUGUAGGAUAUGCUUAGCCUUAAGAAAGCAGAAGGACAAACUUGAGGAUCACCCAAGUGGUCCAAACA [Diraveti] (Eterna round: R97, puzzle: Exclusion 6)
Data returned: 0.0196
